Values compiled from the supplement of paper PMC8728848.

// values below are reported glycan array binding signal (z-score)
# Target System: Fuc(a1-3)[Gal3S(b1-4)]GlcNAc
# Experiment Description: glycan array binding signal (z-score within array); higher = stronger binding
# Details: glycan notation: IUPAC condensed, linker removed
The entries come from a sample that favours the strongest signals as a whole.
Measured Endpoint: glycan array binding signal (z-score)

{"Binder": "Clec18A (Homo sapiens) (protein) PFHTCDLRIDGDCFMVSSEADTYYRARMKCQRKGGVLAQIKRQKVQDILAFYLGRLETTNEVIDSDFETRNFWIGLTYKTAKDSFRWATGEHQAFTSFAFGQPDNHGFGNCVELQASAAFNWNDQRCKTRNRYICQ", "Measured Endpoint": "glycan array binding signal (z-score)", "Recorded Result": 0.178}
{"Binder": "FBG2 (Homo sapiens), Q9NRD1 (protein) MDAPHSKAALDSINELPENILLELFTHVPARQLLLNCRLVCSLWRDLIDLMTLWKRKCLREGFITKDWDQPVADWKIFYFLRSLHRNLLRNPCAEEDMFAWQIDFNGGDRWKVESLPGAHGTDFPDPKVKKYFVTSYEMCLKSQLVDLVAEGYWEELLDTFRPDIVVKDWFAARADCGCTYQLKVQLASADYFVLASFEPPPVTIQQWNNATWTEVSYTFSDYPRGVRYILFQHGGRDTQYWAGWYGPRVTNSSIVVSPKMTRNQASSEAQPGQKHGQEEAAQSPYRAVVQIFPPPVTIQQWNNATWTEVSYTFSDYPRGVRYILFQHGGRDTQYWAGWYGPRVTNSSIVVSPKMTRNQASSEAQPGQKHGQEEAAQSPYRAVVQI", "Measured Endpoint": "glycan array binding signal (z-score)", "Recorded Result": -0.236}
{"Binder": "BDCA2 ex-domain (Homo sapiens) (protein) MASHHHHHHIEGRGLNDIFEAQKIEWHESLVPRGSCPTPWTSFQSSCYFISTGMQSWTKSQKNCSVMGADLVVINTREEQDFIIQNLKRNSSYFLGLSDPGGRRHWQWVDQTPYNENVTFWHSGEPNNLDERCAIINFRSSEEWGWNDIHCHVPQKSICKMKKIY", "Measured Endpoint": "glycan array binding signal (z-score)", "Recorded Result": -0.204}
